- subjectOfTest: HDAC8 (Homo sapiens (Human))
- Sequence (Q9BY41 whole entry): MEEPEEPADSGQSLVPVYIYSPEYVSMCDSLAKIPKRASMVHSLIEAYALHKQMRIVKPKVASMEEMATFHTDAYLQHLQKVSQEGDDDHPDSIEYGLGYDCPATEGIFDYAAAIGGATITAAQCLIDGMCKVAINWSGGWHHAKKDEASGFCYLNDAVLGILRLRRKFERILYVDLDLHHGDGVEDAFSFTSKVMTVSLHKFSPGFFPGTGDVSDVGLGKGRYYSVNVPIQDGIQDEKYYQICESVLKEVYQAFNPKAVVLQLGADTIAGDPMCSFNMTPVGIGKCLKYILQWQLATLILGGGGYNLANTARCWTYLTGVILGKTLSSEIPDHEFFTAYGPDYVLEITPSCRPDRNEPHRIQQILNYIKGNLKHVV
- procedureText: HDAC in vitro enzymatic assay (fluorescence)
- runParameters: read-out: IC50 HDAC8; selectivity profiling; top concentration 200 μM
Structures can show the parent of a compound that is named as a salt.
Could you please mark 1 for values of IC50 below 0.2 µM and -1 for values at or above it?

{"compound": "O=C(NO)c1ccc2nc(-c3ccc4c(c3)CCO4)[nH]c2c1 [Example 96]", "qualitativeLabel": -1}
{"compound": "O=C(NO)c1ccc2nc(-c3ccccc3-c3ccccc3)[nH]c2c1 [Example 119]", "qualitativeLabel": -1}
{"compound": "CC(C)c1ccc(-c2nc3ccc(C(=O)NO)cc3[nH]2)cc1 [Example 50]", "qualitativeLabel": -1}
{"compound": "CC(C)c1ccc(-c2nc3cc(C(=O)NO)ccc3n2C)cc1 [Example 223]", "qualitativeLabel": 1}
{"compound": "COc1c(C)cc(-c2nc3cc(C(=O)NO)ccc3n2C)cc1C [Example 228]", "qualitativeLabel": 1}
{"compound": "CN1CCN(Cc2ccc(-c3nc4ccc(C(=O)NO)cc4[nH]3)cc2)CC1 [Example 207]", "qualitativeLabel": -1}
{"compound": "O=C(NO)c1ccc2nc(-c3cccs3)[nH]c2c1 [Example 98]", "qualitativeLabel": -1}
{"compound": "CCCCc1ccc(-c2nc3ccc(C(=O)NO)cc3[nH]2)cc1 [Example 162]", "qualitativeLabel": 1}
{"compound": "O=C(NO)c1ccc2nc(-c3ccc(-c4ccc(CN5CCOCC5)cc4)cc3)[nH]c2c1 [Example 190, trifluoroacetate]", "qualitativeLabel": 1}

---

- subjectOfTest: HDAC1 (Homo sapiens (Human))
- Sequence (Q13547 whole entry): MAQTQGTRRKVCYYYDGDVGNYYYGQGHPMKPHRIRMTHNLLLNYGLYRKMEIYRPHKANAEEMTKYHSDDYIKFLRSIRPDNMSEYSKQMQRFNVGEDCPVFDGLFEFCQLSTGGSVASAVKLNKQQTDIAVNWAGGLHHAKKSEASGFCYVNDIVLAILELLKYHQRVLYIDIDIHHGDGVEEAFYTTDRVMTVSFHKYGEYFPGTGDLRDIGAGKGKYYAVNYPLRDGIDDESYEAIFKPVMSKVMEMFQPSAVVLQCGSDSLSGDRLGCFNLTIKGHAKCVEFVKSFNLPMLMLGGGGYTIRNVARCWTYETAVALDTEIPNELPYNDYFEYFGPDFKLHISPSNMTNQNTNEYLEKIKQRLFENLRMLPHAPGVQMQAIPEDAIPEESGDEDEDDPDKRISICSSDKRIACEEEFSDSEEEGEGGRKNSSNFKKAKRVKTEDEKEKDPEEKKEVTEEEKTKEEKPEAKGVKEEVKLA
- procedureText: HDAC in vitro enzymatic assay (fluorescence)
- runParameters: read-out: IC50 HDAC 1; full HDAC panel; top concentration 10 μM
// IC50 lookup, one value per entry

{"smilesText": "Cc1cc(O)cc(C)c1-c1nc2ccc(C(=O)NO)cc2[nH]1", "subjectOfTest": "HDAC1 (Homo sapiens (Human))", "IC50": "> 10 µM"}
{"smilesText": "O=C(NO)c1ccc2nc(-c3ccccc3C(F)(F)F)[nH]c2c1", "subjectOfTest": "HDAC1 (Homo sapiens (Human))", "IC50": "> 10 µM"}

---

// IC50 lookup, one value per entry
- subjectOfTest: HDAC3 (Homo sapiens (Human))
- Sequence (O15379 whole entry): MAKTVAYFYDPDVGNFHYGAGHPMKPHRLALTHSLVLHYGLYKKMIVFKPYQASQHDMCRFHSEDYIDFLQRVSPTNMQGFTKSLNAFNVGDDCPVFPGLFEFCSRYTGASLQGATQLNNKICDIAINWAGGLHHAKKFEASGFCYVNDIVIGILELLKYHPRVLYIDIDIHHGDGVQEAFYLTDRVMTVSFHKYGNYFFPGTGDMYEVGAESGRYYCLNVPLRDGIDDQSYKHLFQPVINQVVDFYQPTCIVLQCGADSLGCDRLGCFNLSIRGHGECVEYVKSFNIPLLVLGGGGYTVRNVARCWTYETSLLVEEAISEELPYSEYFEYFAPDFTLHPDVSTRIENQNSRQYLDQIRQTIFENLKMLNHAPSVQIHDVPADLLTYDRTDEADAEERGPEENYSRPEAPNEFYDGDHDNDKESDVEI
- Sequence (Q9Y618 395-489 partner): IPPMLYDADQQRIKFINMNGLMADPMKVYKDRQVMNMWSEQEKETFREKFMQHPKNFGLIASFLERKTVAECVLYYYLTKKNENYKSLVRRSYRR
- procedureText: HDAC in vitro enzymatic assay (fluorescence)
- runParameters: read-out: IC50 HDAC3; selectivity profiling; top concentration 200 μM
Counter-ions that a name gives are not always drawn.

{"compound": "O=C(NO)c1ccc2nc(-c3ccc(-c4ccccc4)cc3)[nH]c2c1 [Example 6]", "subjectOfTest": "HDAC3 (Homo sapiens (Human))", "comparativeSign": "=", "IC50 / nM": 2100}
{"compound": "COc1c(C)cc(-c2nc3cc(C(=O)NO)ccc3n2C)cc1C [Example 228]", "subjectOfTest": "HDAC3 (Homo sapiens (Human))", "comparativeSign": "=", "IC50 / nM": 216}
{"compound": "O=C(NO)c1ccc2nc(-c3ccc4c(c3)CCO4)[nH]c2c1 [Example 96]", "subjectOfTest": "HDAC3 (Homo sapiens (Human))", "comparativeSign": "=", "IC50 / nM": 1300}
{"compound": "Cn1c(-c2ccc(-c3ccccc3)cc2)nc2cc(C(=O)NO)ccc21 [Example 225]", "subjectOfTest": "HDAC3 (Homo sapiens (Human))", "comparativeSign": ">", "IC50 / nM": 200000}
{"compound": "O=C(NO)c1ccc2nc(-c3cccc(Br)c3)[nH]c2c1 [Example 21]", "subjectOfTest": "HDAC3 (Homo sapiens (Human))", "comparativeSign": "=", "IC50 / nM": 780}
{"compound": "O=C(NO)c1ccc2nc(-c3cccs3)[nH]c2c1 [Example 98]", "subjectOfTest": "HDAC3 (Homo sapiens (Human))", "comparativeSign": "=", "IC50 / nM": 1900}
{"compound": "CC(C)c1ccc(-c2nc3ccc(C(=O)NO)cc3[nH]2)cc1 [Example 50]", "subjectOfTest": "HDAC3 (Homo sapiens (Human))", "comparativeSign": "=", "IC50 / nM": 3400}
{"compound": "CC(C)c1ccc(-c2nc3cc(C(=O)NO)ccc3n2C)cc1 [Example 223]", "subjectOfTest": "HDAC3 (Homo sapiens (Human))", "comparativeSign": "=", "IC50 / nM": 4500}
{"compound": "CN1CCN(Cc2ccc(-c3nc4ccc(C(=O)NO)cc4[nH]3)cc2)CC1 [Example 207]", "subjectOfTest": "HDAC3 (Homo sapiens (Human))", "comparativeSign": "=", "IC50 / nM": 250}
{"compound": "CCCCc1ccc(-c2nc3ccc(C(=O)NO)cc3[nH]2)cc1 [Example 162]", "subjectOfTest": "HDAC3 (Homo sapiens (Human))", "comparativeSign": "=", "IC50 / nM": 11000}
{"compound": "O=C(NO)c1ccc2nc(-c3ccccc3-c3ccccc3)[nH]c2c1 [Example 119]", "subjectOfTest": "HDAC3 (Homo sapiens (Human))", "comparativeSign": "=", "IC50 / nM": 2800}
{"compound": "CCc1ccc(-c2nc3ccc(C(=O)NO)cc3[nH]2)cc1 [Example 109]", "subjectOfTest": "HDAC3 (Homo sapiens (Human))", "comparativeSign": "=", "IC50 / nM": 2200}
{"compound": "O=C(NO)c1ccc2nc(-c3ccc(-c4ccc(CN5CCOCC5)cc4)cc3)[nH]c2c1 [Example 190, trifluoroacetate]", "subjectOfTest": "HDAC3 (Homo sapiens (Human))", "comparativeSign": "=", "IC50 / nM": 910}
{"compound": "CC(C)Oc1ccc(-c2nc3ccc(C(=O)NO)cc3[nH]2)cc1 [Example 97]", "subjectOfTest": "HDAC3 (Homo sapiens (Human))", "comparativeSign": "=", "IC50 / nM": 2400}
